Measured fluorescence lifetime by item
Experiment: solvent given as SMILES
Details: in O=P(c1ccccc1)(c1ccccc1)c1ccc2oc3ccc(P(=O)(c4ccccc4)c4ccccc4)cc3c2c1
The answer is to be given in ns; state only the numeric part.

[[record]]
querysmiles = "CC1(C)c2ccccc2N(c2ccc(-c3ncccn3)cc2)c2ccccc21"
unitspec = "ns"
measurement = 11

[[record]]
querysmiles = "c1ccc(-c2nc(-c3ccccc3)nc(-c3cc(-n4c5ccccc5c5ncccc54)c(-n4c5ccccc5c5ncccc54)c(-n4c5ccccc5c5ncccc54)c3)n2)cc1"
unitspec = "ns"
measurement = 14.5

[[record]]
querysmiles = "Cc1ccc2c(c1)C1(c3ccccc3-c3ccccc31)c1cc(C)ccc1N2c1ccc(-c2nc(-c3ccccc3)cc(-c3ccccc3)n2)cc1"
unitspec = "ns"
measurement = 12


// next entry
IN: State its fluorescence lifetime: `c1ccc(-c2nc(-c3ccc(N4c5ccccc5C(c5ccccc5)(c5ccccc5)c5ccccc54)cc3)cc(-c3ccc(N4c5ccccc5C(c5ccccc5)(c5ccccc5)c5ccccc54)cc3)n2)cc1`
OUT: 11

###

Assay: solvent given as SMILES
Settings: in Cc1ccccc1
Measured fluorescence lifetime by item
The answer is to be given in ns; state only the numeric part.

[[record]]
querysmiles = "CN(C)c1ccc(C2=Nc3sc4cc(F)ccc4[n+]3[B-](F)(F)O2)cc1"
measurement = 1.68


IN: State its fluorescence lifetime: `Cc1cc(-c2ccc(-n3c4ccccc4c4ccccc43)cc2)nc(-c2ccc(-n3c4ccccc4c4ccccc43)cc2)n1`
OUT: 2.44

IN: State its fluorescence lifetime: `N#Cc1cc(C#N)cc(-n2c3ccccc3c3cc(-c4ccc5c(c4)c4ccccc4n5-c4cc(C#N)cc(C#N)c4)ccc32)c1`
OUT: 24

IN: State its fluorescence lifetime: `CN(C)c1ccc(/C=C2\CC/C(=C\c3ccc(N(C)C)cc3)C2=O)cc1`
OUT: 0.48

###

Measured log10(fluorescence lifetime) by item
Test: solvent given as SMILES
Conditions: in c1ccc2c(c1)c1ccccc1n2-c1ccc(-c2ccc(-n3c4ccccc4c4ccccc43)cc2)cc1
Annotation: log10 of fluorescence lifetime, ns basis.

Past entries and their recorded results:
[[record]]
querysmiles = "CC(C)(C)c1ccc2c(c1)c1cc(C(C)(C)C)ccc1n2-c1ccc(-c2ccc3c(c2)C(=O)c2ccc(-c4ccc(-n5c6ccc(C(C)(C)C)cc6c6cc(C(C)(C)C)ccc65)cc4)cc2C3=O)cc1"
quantitykind = "log10(fluorescence lifetime)"
measurement = 1.52

[[record]]
querysmiles = "O=C1c2ccc(N(c3ccc(-c4ccccc4)cc3)c3ccc(-c4ccccc4)cc3)cc2C(=O)c2ccc(N(c3ccc(-c4ccccc4)cc3)c3ccc(-c4ccccc4)cc3)cc21"
quantitykind = "log10(fluorescence lifetime)"
measurement = 0.75

[[record]]
querysmiles = "CCCCCCN1C(=O)C(c2ccc(-c3ccc(-n4c5ccccc5c5ccccc54)cc3)cc2)=C(c2ccc(-c3ccc(-n4c5ccccc5c5ccccc54)cc3)cc2)C1=O"
quantitykind = "log10(fluorescence lifetime)"
measurement = 0.74


// next entry
IN: State its log10(fluorescence lifetime): `O=P1(c2ccccc2)c2cc(N3c4ccccc4Sc4ccccc43)ccc2-c2ccc(N3c4ccccc4Sc4ccccc43)cc21`
OUT: 1.66

###

Experiment: solvent given as SMILES
Settings: in CC(C)=O
quantityKind: fluorescence lifetime (ns)
The answer is to be given in ns; state only the numeric part.

Past entries and their recorded results:
[[record]]
querysmiles = "Cn1ccc(-c2nc3ccccc3nc2/C=C/N2CCCC2)c1"
unitspec = "ns"
measurement = 6.72

[[record]]
querysmiles = "O=C1c2ccccc2-c2ccc(N3CCN(c4ccccc4)CC3)c3cccc1c23"
unitspec = "ns"
measurement = 0.09


IN: State its fluorescence lifetime: `CC(=O)Nc1ccc2c3c(cccc13)C(=O)c1ccccc1-2`
OUT: 9.7

Just for reference, the Deep4Chem optical property database is where these values come from.
